Origin of measurements: BigSolDB 2.1

Conditions: in DMF, 303.15 K
measurementLabel: solubility (mole fraction)
Respond using a number only.

Query: Returns the measured solubility (mole fraction) for the input compound. Input: NC(=O)N1c2ccccc2CC(=O)c2ccccc21
Result: 0.0183
